- System: MS2 coat protein
- test details: apparent Kd, MS2 coat protein; higher = weaker binding; RNA-MaP array
- test conditions: ligand present: flavin mononucleotide; designed as: OFF switch for flavin mononucleotide
Record form. Attribute: apparent Kd. Fill in for each entry.
Write it as a number; the unit nM goes unstated.

Input line: Item: AUUGGAGACUGGUACAUGAGGAUCACCCAUGUUAAUAACAGUAGAAGGCCCGCGGUUAGAAGAUGGGAGGAUAUACACGUGGGU Test system: MS2 coat protein Read-out: apparent Kd Value: ?
Output line: 17.8

Input line: Could you do the same for CCAUGAAGAUAGGAUAUAGGUCGAGUUCCCGAACAAGAAGGAUCGACAUGAGGAUCACCCAUGUGCAUCCAUGA , please?
Output line: 21.1

Input line: Another: UAUUGAAUCCUCCCGACAUGAGGAUCACCCAUGUUACCUGCGCAGGAUAUCGUAUGUAUACCCGGCGAGAAGGGCGCUAGCGAG
Output line: 160

Input line: Request: UUCAUUUAGGAGGAUAUUUAGGCAUGAGGGCUAAAAGAAGGCCUAACAUGAGGAUCACCCAUGUUUGGACUAGA
Output line: 7.4

Input line: Record: GUCUCACAGAUAGGAUAUGGUUUUCACAUGAGGAUCACCCAUGUAAAUCCUAAAGUAAGUGGAGGCCAGAAGGAUCCGGUACAG
Output line: 35.1

Input line: // query: GACCCACAUGAGGAUCACCCAUGUCAGGAUAUCCGAUCGUCAAAGACCCAAAUAAUUAGGAGAAGGGACAUUAA
Output line: 15.4

Input line: Can you handle UCUAAAAUCGGAGGAUAUUACGAAGACAUGAGGAUCACCCAUGUAGUGGAACACAUAAGUCGCUCUAAGAAGGCCGCAAUUGAC next?
Output line: 34.6

---

- Test system: MS2 coat protein
- test details: apparent Kd, MS2 coat protein; higher = weaker binding; RNA-MaP array; FMN 200 µM where present
- test conditions: ligand present: flavin mononucleotide; designed as: ON switch for flavin mononucleotide
Please mark MET if the recorded apparent Kd is equal to or greater than 50 nM, and NOT MET if it falls below.

Input line: Exam item: decide whether the reported apparent Kd for CGAGGACAUGAGGAUCACCCAUGUAGCUACAAAACGCAGCGACAGGAUAUCCUCUGGUUCCCAUAGGAGAAGGGUCAAACCUUG is at least 50 nM.
Output line: NOT MET

Input line: And then UCAUUUAUUACAGGAUAUAUUAGUAUACAGUUGUUUGGUUAUUACAUAUUAAUAGAAGGGUAGAACAUGAGGAUCACCCAUGUA , what is it?
Output line: MET

Input line: Request: UGGUACUAGGGAGGAUAUGGGAAGAUACAUGAGGAUCACCCAUGUUUAAGAAUGCCGAGAGGCAACUAGAAGGACCUAGUACCU
Output line: MET

Input line: Same question, GCGUAUAAGGUGUAGCUAGACAUUCAAGAAGGGUGAAGAACAUGAGGAUCACCCAUGUAGUAGGUACAGGAUAUUGAUUUACGC this time
Output line: MET

Input line: Let us now turn to GUGCACAUUCGAGGAUAUCGGAGAGAGAUCCUUCGAGAAGGCGAUUCAUGAUGUAUUAUCCUGGACAUGAGGAUCACCCAUGUG
Output line: MET

Input line: GUGGUUGUCGUAGGAUAUGUAGGAUAUUCCUACAUGAGGAUCACCCAUGUUCGCAUGGAAGAAGGACAGAAGGACGAUGACCAG ?
Output line: NOT MET

These measurements were taken from the EternaBench riboswitch data.
